target: human GLP-1R (Homo sapiens, UniProt P43220); construct: expressed in transfected cells; host or cells: PEAK RAPID-derived Gα15-trans48 LD stably expressing cells (PRG48), transiently transfected with Lipofectamine 2000; assay: GLP-1 receptor in vitro calcium assay (intracellular free calcium concentration change induced via GLP-1 receptor); type: cell-based; settings: intensity compared to BETP, activity of BETP as 1
Sequence (P43220 24-463): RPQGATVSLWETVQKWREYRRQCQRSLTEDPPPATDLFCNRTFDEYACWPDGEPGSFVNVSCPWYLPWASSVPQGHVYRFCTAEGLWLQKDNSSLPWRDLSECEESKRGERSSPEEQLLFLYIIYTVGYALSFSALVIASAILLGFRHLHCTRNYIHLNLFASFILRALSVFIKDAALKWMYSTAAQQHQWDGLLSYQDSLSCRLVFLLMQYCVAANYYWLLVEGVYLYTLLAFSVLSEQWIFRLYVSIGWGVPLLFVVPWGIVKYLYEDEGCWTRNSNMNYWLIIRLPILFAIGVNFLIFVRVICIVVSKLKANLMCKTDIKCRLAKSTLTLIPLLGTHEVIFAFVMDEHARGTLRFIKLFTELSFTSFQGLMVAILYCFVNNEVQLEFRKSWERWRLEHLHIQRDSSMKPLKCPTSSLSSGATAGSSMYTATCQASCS
GLP-1 receptor action enhancing activity (vs BETP) by entry:
QUANTITY MEASURED: GLP-1 receptor action enhancing activity (vs BETP)

{"COMPOUND": "CCCCC(CC)CNC(=O)[C@@H](CC1CCCCC1)NC(=O)Nc1ccc(N(CCCSC)S(=O)(=O)c2ccc(C(C)(C)C)cc2)cc1 (stereo partly drawn)", "RECORDED NUMBER": 7694}
{"COMPOUND": "CCCCC(CC)CNC(=O)[C@H](CC1CCCCC1)NC(=O)Nc1ccc(NS(=O)(=O)c2ccc(C(C)(C)C)cc2)cc1 (stereo partly drawn)", "RECORDED NUMBER": 3720}
{"COMPOUND": "CCCCCCNC(=O)[C@@H](Cc1cccnc1)NC(=O)Nc1ccc(NS(=O)(=O)c2ccc(C(C)(C)C)cc2)cc1", "RECORDED NUMBER": 42}
{"COMPOUND": "CCCCCCNC(=O)[C@@H](Cc1c[nH]c2ccccc12)NC(=O)Nc1cccc(NS(=O)(=O)c2ccc(C(C)(C)C)cc2)c1", "RECORDED NUMBER": 101}
{"COMPOUND": "Cc1ccc(S(=O)(=O)Nc2ccc(NC(=O)N[C@@H](CC(C)C)C(=O)OC(C)(C)C)cc2)cc1", "RECORDED NUMBER": 13}
{"COMPOUND": "Cc1ccc(S(=O)(=O)Nc2ccc(NC(=O)N[C@H](CC(C)C)C(=O)NC3CCCCCC3)cc2)cc1", "RECORDED NUMBER": 19}
{"COMPOUND": "Cc1ccc(S(=O)(=O)Nc2ccc(NC(=O)N[C@H](Cc3ccccc3)C(=O)NCCC3CCCCC3)cc2)cc1", "RECORDED NUMBER": 116}
{"COMPOUND": "CCc1ccc(S(=O)(=O)Nc2ccc(NC(=O)N[C@@H](Cc3ccccc3)C(=O)OC(C)(C)C)cc2)cc1", "RECORDED NUMBER": 41}
{"COMPOUND": "CCCCCCNc1ccc(S(=O)(=O)Nc2cccc(NC(=O)N[C@H](Cc3c[nH]c4ccccc34)C(=O)NC(C)CCCC(C)C)c2)cn1 (stereo partly drawn)", "RECORDED NUMBER": 5731}
{"COMPOUND": "Cc1ccc(S(=O)(=O)Nc2ccc(NC(=O)N[C@@H](Cc3ccccc3)C(=O)OC(C)(C)C)cc2)cc1", "RECORDED NUMBER": 13}
{"COMPOUND": "Cc1ccc(S(=O)(=O)Nc2ccc(NC(=O)N[C@H](CC(=O)OC(C)(C)C)Cc3ccccc3)cc2)cc1", "RECORDED NUMBER": 16}
{"COMPOUND": "CCCCC(CC)CNC(=O)[C@@H](Cc1ccccc1)NC(=O)Nc1ccc(NS(=O)(=O)c2ccc(C(C)(C)C)cc2)cc1 (stereo partly drawn)", "RECORDED NUMBER": 1425}
{"COMPOUND": "CC(C)(C)c1ccc(S(=O)(=O)Nc2ccc(NC(=O)N[C@@H](CC3CCCCC3)c3nc(-c4ccc(OC(F)(F)F)cc4)no3)cc2)cc1", "RECORDED NUMBER": 7358}
{"COMPOUND": "CCCCCCNC(=O)[C@@H](CC(C)C)NC(=O)Nc1ccc(NS(=O)(=O)c2ccc(C)cc2)cc1", "RECORDED NUMBER": 52}
{"COMPOUND": "Cc1ccc(S(=O)(=O)Nc2ccc(NC(=O)N[C@H](Cc3ccccc3)C(=O)NCC(F)(F)F)cc2)cc1", "RECORDED NUMBER": 599}
{"COMPOUND": "Cc1ccc(S(=O)(=O)Nc2ccc(NC(=O)N[C@H](Cc3ccccc3)C(=O)NC3CCCCCC3)cc2)cc1", "RECORDED NUMBER": 68}
{"COMPOUND": "CCCOc1ccc(-c2noc([C@H](CC3CCCCC3)NC(=O)Nc3ccc(NS(=O)(=O)c4ccc(C(C)(C)C)cc4)cc3)n2)cc1", "RECORDED NUMBER": 5794}
{"COMPOUND": "CCCCC(CC)CNC(=O)[C@H](CC(C)C)NC(=O)Nc1ccc(NS(=O)(=O)c2ccc(C(C)(C)C)cc2)cc1 (stereo partly drawn)", "RECORDED NUMBER": 2786}
{"COMPOUND": "CCCCCCCCNC(=O)[C@H](CC1CCCCC1)NC(=O)Nc1ccc(NS(=O)(=O)c2ccc(C(C)(C)C)cc2)cc1", "RECORDED NUMBER": 7462}
{"COMPOUND": "Cc1ccc(S(=O)(=O)Nc2ccc(NC(=O)N[C@H](Cc3ccccc3)C(=O)NCc3ccc(C)o3)cc2)cc1", "RECORDED NUMBER": 31}
{"COMPOUND": "CC[S+]([O-])c1nc(-c2cccc(OCc3ccccc3)c2)cc(C(F)(F)F)n1 (stereo not drawn) [BETP, reference compound]", "RECORDED NUMBER": 1}
{"COMPOUND": "Cc1ccc(S(=O)(=O)Nc2ccc(NC(=O)N[C@H](CC3CCCCC3)C(=O)NCCC3CCCCC3)cc2)cc1", "RECORDED NUMBER": 1149}
{"COMPOUND": "CCCCC(CC)CNC(=O)[C@@H](Cc1ccccc1)NC(=O)Nc1ccc(NS(=O)(=O)c2ccc(C)cc2)cc1 (stereo partly drawn)", "RECORDED NUMBER": 391}
{"COMPOUND": "CC(C)CCCC(C)NC(=O)[C@@H](CC1CCCCC1)NC(=O)Nc1ccc(NS(=O)(=O)c2ccc(N3CCOCC3)nc2)cc1 (stereo partly drawn)", "RECORDED NUMBER": 53}
{"COMPOUND": "COCCCNC(=O)[C@@H](CC1CCCCC1)NC(=O)Nc1ccc(NS(=O)(=O)c2ccc(C(C)(C)C)cc2)cc1", "RECORDED NUMBER": 35}
{"COMPOUND": "Cc1ccc(S(=O)(=O)Nc2ccc(NC(=O)N[C@@H](Cc3ccc(OC(C)(C)C)cc3)C(=O)OC(C)(C)C)cc2)cc1", "RECORDED NUMBER": 34}
{"COMPOUND": "CCCCC(CC)CNC(=O)[C@@H](Cc1c[nH]c2ccccc12)NC(=O)Nc1ccc(NS(=O)(=O)c2ccc(C(C)(C)C)cc2)cc1F (stereo partly drawn)", "RECORDED NUMBER": 350}
